system: Neuregulin-1 EGF-like domain; experiment: binders of neuregulin-1 EGF-like domain, primary screen, biochemical, small-molecule microarray, 635 nm fluorescence (AID 1081); settings: small-molecule microarray binding, higher = more signal;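 note: binding of the protein to compounds printed on small-molecule microarray slides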
MEASUREMENT LABEL: composite z-score
Write the number on its own, no unit after it.

Value of composite z-score reported for the compound CCN1C(=O)C2CC(=O)C3C(CN(S(=O)(=O)c4ccc(C)cc4)C3c3ccc(C)cc3)C2C1=O (centres undefined) is 1.18

Value of composite z-score reported for the compound `COC(=O)[C@@]1(Cc2ccc(OC)cc2)[C@H]2c3cc(C(=O)N(C)C)n(Cc4c(CO)[nH]cc(C)c4=O)c3C[C@H]2CN1C(=O)c1ccccc1` is 1.37

Value of composite z-score reported for the compound `O=C1O[C@H](c2ccccc2)[C@H](c2ccccc2)N2[C@H]1[C@@H](C(=O)O)[C@]1(C(=O)Nc3ccc(C#CC4(O)CCCCCC4)cc31)[C@H]2c1ccccc1OCCO` is 1.19

Value of composite z-score reported for the compound `O=C/C=C/c1ccc(-c2ccccc2)cc1` is -0.836

Value of composite z-score reported for the compound `CCOC(=O)C[C@H]1[C@H](OC(=O)c2ccc(-c3ccccc3)cc2)[C@@H](NC(=O)c2ccc(-c3ccccc3)cc2)c2cc(OCCCO)ccc2N1C(=O)c1ccccc1` is 0.905

Value of composite z-score reported for the compound `O=C1O[C@H](c2ccccc2)[C@H](c2ccccc2)N2[C@H]1[C@@H](C(=O)N1CCCCCCC1)[C@]1(C(=O)Nc3ccc(C#CCCO)cc31)[C@H]2c1ccc(O)cc1` is 1.42

Value of composite z-score reported for the compound CC[C@H]1C2=C3C(CC[C@H]4C(OCc5ccc(F)cc5C(F)(F)F)OC[C@](C)([C@@H]34)N(C(=O)OC(C)(C)C)C2)C(COC(C)=O)C1COC(C)=O (some centres undefined) is 1.2

Value of composite z-score reported for the compound `C=C(CCCC)C(=O)CC[C@@H](OC(C)=O)c1ccc(OCCO)cc1` is 1.02

Value of composite z-score reported for the compound `C=CC[C@H](O)c1ccc(O)c(F)c1` is -0.502

---

target: Carbonic anhydrase 2 (Homo sapiens); test: CAII small-molecule binders, profiling panel, biochemical, small-molecule microarray, Alexa647-labelled CAII (AID 1122); details: CAII-A647 binding fluorescence, higher = more signal
MEASUREMENT LABEL: composite z-score
Write the number on its own, no unit after it.

Value of composite z-score reported for the molecule `CCCCC(=C=CC[C@H](O)c1ccccc1OCCO)CCO` is 0.524

Value of composite z-score reported for the molecule `COc1ccc(C#Cc2ccc3c(c2)[C@]2(C(=O)N3)[C@H](c3ccccc3OCCO)N3[C@H](c4ccccc4)[C@H](c4ccccc4)OC(=O)[C@H]3[C@@H]2C(=O)NC[C@H](O)c2ccccc2)cc1` is 0.373

Value of composite z-score reported for the molecule C=CCC(OC(C)=O)[C@@H]1[C@@H](N(Cc2ccc(-c3ccccc3)cc2)C(=O)Cc2ccc(OC)cc2)c2cc(OCCCO)ccc2N1C(=O)Cc1ccc(OC)cc1 (stereo partly drawn) is 0.306

---

assay: basal MM1S mitochondrial membrane potential changes, profiling panel, cell-based, JC-1 fluorescence, 24 h, 100 nL compound (AID 1170); conditions: higher = more signal; note: test concentration not given here
So I've got a bunch of compounds here, and I need their z-score values.
Write the number on its own, no unit after it.

Value of z-score reported for the compound `C[N+](C)(C)CCCC[C@@H]1NC(=O)[C@H]2C[C@@H](C(=O)O)[C@@H](c3ccc(O)cc3)N2C1=O` is -1.26

Value of z-score reported for the compound `C=C(CC1([C@@H](NP(=O)(c2ccccc2)c2ccccc2)[C@H]2C[C@@H]2CCCC)CC1)c1cccc(OC)c1` is -0.366

Value of z-score reported for the compound COC(=O)c1ccc(OC)c(/C=C\CC(OC(=O)c2ccncc2)c2ccccc2)c1 (stereo unspecified) is 0.148

Value of z-score reported for the compound `C=C(COC)C(=O)CC[C@H](OC(C)=O)c1ccc(CO)o1` is -0.434

Value of z-score reported for the compound COC(=O)C1=CC(CCCO)=CC(c2ccc(CN3CCCC3)cc2)N(C)C=C1C(=O)OC (stereo unspecified) is -0.537

Value of z-score reported for the compound `[N-]=[N+]=NCc1ccccc1C[C@@]1(C(=O)NCCN2CCOCC2)N=C(c2ccc(OCCCO)cc2)O[C@@H]1c1ccccc1` is -0.956

Value of z-score reported for the compound `CC(C)Cc1ccc(CN2CC[C@@H](NC(=O)c3ccccc3)C2)cc1` is -1.38

Value of z-score reported for the compound `O=C1c2ccccc2[C@@]2(Cc3ccccc3N(CC(F)(F)F)C2=O)[C@H](c2ccc(CO)cc2)N1Cc1ccccc1` is -1.09

Value of z-score reported for the compound O=C1OCC=C[C@H]2OC34C=CCN(Cn5nnc6ccccc65)C(=O)[C@H]3N(CCO)C(=O)[C@@H]4[C@@H]12 (stereo partly specified) is -0.187

Value of z-score reported for the compound CC1(C)OB(/C=C\CC(OC(=O)c2ccncc2)c2ccccc2)OC1(C)C (stereo unspecified) is 0.343

Value of z-score reported for the compound `Cc1ccc(S[C@]2(C(=O)NC(C)C)CC(=O)N(Cc3ccccc3)[C@@H]2c2ccc(CO)cc2I)cc1` is -1.23
